Molecular target: T1, TIA-1 RRM2,3 (UniProt P31483-2 93-274)
T1 sequence: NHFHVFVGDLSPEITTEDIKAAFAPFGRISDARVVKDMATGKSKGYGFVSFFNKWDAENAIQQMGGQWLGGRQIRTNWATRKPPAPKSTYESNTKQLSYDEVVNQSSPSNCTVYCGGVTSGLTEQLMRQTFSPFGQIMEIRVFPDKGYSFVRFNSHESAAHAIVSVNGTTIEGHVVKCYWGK
Experiment: fluorescence anisotropy; 12 mM arginine; FA: 10 mM HEPES pH 7.2, 50 mM NaCl, 12 mM arginine (further 1 mM component truncated in the text); temperature not stated; KD from two independent measurements.
Details: protein: recombinant; tags: 6xHis removed with thrombin; label: 5'-fluorescein; single strand
METRIC: pKd
Units for pKd: none; it is -log10 of a concentration expressed in mol/L.

What does the record list as pKd for TTTTTACTCC (ssDNA) [TC1] ? 8.70
